Target: BRD4 BD1 (Homo sapiens, UniProt O60885)
Experiment: AlphaScreen binding assay, BRD4 Bromodomain 1
Procedure: The binding of Example compounds to BRD4 Bromodomain 1 and BRD4 Bromodomain 2 was assessed using 384-well AlphaScreen assay technology. His-epitope tagged BRD4 BD144-168 and BRD4 BD2333-460 were cloned, expressed, and purified to homogeneity. BRD4 BD1 and BRD4 BD2 binding and inhibition was assessed by monitoring the engagement of biotinylated Histone H4 (1-21) K5/8/12/16 tetra-acetylated peptide with the targets using the AlphaScreen technology (PerkinElmer). […]
readoutType: IC50

molecule="CC(=O)N1c2ccc(-c3ccccc3F)cc2N(C(=O)c2ccco2)C[C@@H]1C [Example I-795]" assayresult="1000 to 10000 nM"
molecule="COC(=O)N1c2ccc(-c3ccc(C(=O)N4CCNCC4)cc3)cc2N(C(=O)C2CC2)C[C@@H]1C [Example I-456]" assayresult="100 to 1000 nM"
molecule="COC(=O)N1c2ccc(-c3cnc(N)cn3)cc2N(C(=O)C2CC2)C[C@@H]1C [Example I-458]" assayresult="1000 to 10000 nM"
molecule="CC(=O)N1c2ccc(-c3cnn(C4COC4)c3)cc2N(c2nn(C)c3ccccc23)C[C@@H]1C [Example I-53]" assayresult="100 to 1000 nM"
